System: rats
PROTOCOL NOTES: Behavioural dysfunction scoring during recovery from infusion
Type: in vivo
EXPERIMENTAL CONDITIONS: rat, during wake-up; sum score 0 (no effect) to 4 (severe dysfunction); mean (SEM)
Procedure: The compounds were evaluated for their ability to anaesthetise rats when administered by continuous intravenous infusion, as reported previously. […] During recovery the rats were monitored for multiple signs of behavioural dysfunction (see biology section for details) and the sum of these scores (from 0 to 4, with 0 being no effect and 4 being severe dysfunction) is given in Table 2. […]
VALUE TYPE: Behavioural dysfunction Score (SEM): severity on recovery

Prompt line: Which Behavioural dysfunction Score (SEM): severity on recovery value belongs to CC(C)OC(=O)CCNC1(c2ccc(C(F)(F)F)cc2)CCCCC1=O (stereo not drawn) [18a] ?
Response line: 0 (0)

Prompt line: Need Behavioural dysfunction Score (SEM): severity on recovery of COC(=O)CCCCNC1(c2ccccc2)CCCCC1=O (stereo not drawn) , thanks.
Response line: 1 (0)

Prompt line: Entry COC(=O)CCCCNC1(c2cccc(C)c2)CCCCC1=O (stereo not drawn) [11b] has what Behavioural dysfunction Score (SEM): severity on recovery?
Response line: 2 (1)

Prompt line: // lookup Behavioural dysfunction Score (SEM): severity on recovery for COc1ccc(C2(NCCC(=O)OC(C)C)CCCCC2=O)cc1 (stereo not drawn) [17a]
Response line: 0 (0)

Prompt line: Any idea what its Behavioural dysfunction Score (SEM): severity on recovery is? The molecule is Cc1cccc(C2(NCCC(=O)OC(C)C)CCCCC2=O)c1 (stereo not drawn) [11a]
Response line: 2 (1)

List Behavioural dysfunction Score (SEM): severity on recovery for every entry below, keeping the order given.
1. Cc1ccc(C2(NCCC(=O)OC(C)C)CCCCC2=O)cc1 (stereo not drawn) [16a]
2. CC(C)OC(=O)CCNC1(c2cccc(C(F)(F)F)c2)CCCCC1=O (stereo not drawn) [13a]
3. COC(=O)CCCCNC1(c2ccc(C(F)(F)F)cc2)CCCCC1=O (stereo not drawn) [18b]
4. CC(C)OC(=O)CCNC1(c2ccc(OC(F)(F)F)cc2)CCCCC1=O (stereo not drawn) [19a]
5. COC(=O)CCCCNC1(c2ccccc2F)CCCCC1=O (stereo not drawn)

Response line:
["1 (0)", "0 (0)", "0 (0)", "0 (0)", "3 (1.4)"]

State recorded Behavioural dysfunction Score (SEM): severity on recovery for all listed molecules.
1. COc1ccccc1C1(NCCC(=O)OC(C)C)CCCCC1=O (stereo not drawn)
2. COC(=O)CCCCNC1(c2ccccc2OC)CCCCC1=O (stereo not drawn)
3. CC(C)OC(=O)CCNC1(c2cccc(OC(F)(F)F)c2)CCCCC1=O (stereo not drawn) [14a]

Response line:
["0 (0)", "3 (1)", "0 (0)"]
